System: Recombinant human HSP90a (Homo sapiens)
Assay method text: radioligand filter binding test ([3H]17AAG competition) for HSP90 inhibition
Conditions used: competition with [3H]17AAG 0.08 μM, HSP90 1.5 μg/assay, 22° C., 30 min
pIC50: −log10 of the molar value.
Here, each record is paired with measured pIC50 data.

# annotated cases, reported pIC50 shown
N#CCc1cccc(-c2ccc3nc(N)nc(C(=O)N4Cc5ccccc5C4)c3c2)c1 | 6.00 to 8.00
Nc1nc(C(=O)N2Cc3ccccc3C2)c2cc(-c3ccncc3)ccc2n1 [Compound A922] | 6.00 to 8.00
CN(C)CCN(C)S(=O)(=O)c1ccccc1-c1ccc2nc(N)nc(C(=O)N3Cc4ccccc4C3)c2c1 | 6.00 to 8.00
CCN(CC)C(=O)c1nc(N)nc2ccc(C)cc12 | 5.00 to 6.00
CN1CCN(Cc2cc(O)ccc2-c2ccc3nc(N)nc(C(=O)N4Cc5ccccc5C4)c3c2)CC1 | 6.00 to 8.00

Quick note, pIC50 for Nc1nc(C(=O)N2Cc3ccccc3C2)c2cc(-c3ccccc3O)ccc2n1 landed at 6.00 to 8.00

Form field pIC50, entry Nc1nc(C(=O)N2Cc3ccccc3C2)c2cc(-c3ccccc3C=O)ccc2n1 : 6.00 to 8.00

In plain terms, Nc1nc(C(=O)N2Cc3ccccc3C2)c2cc(C#CCCO)ccc2n1 has a documented pIC50 of 6.00 to 8.00

Lab note: measured pIC50 of CCc1ccc2nc(N)nc(C(=O)N3Cc4ccc(O)cc4C3)c2c1 was 5.00 to 6.00

Form field pIC50, entry CCc1ccc2nc(N)nc(C(=O)N3Cc4ccc(Br)cc4C3)c2c1 : 6.00 to 8.00

Short answer for Nc1nc(C(=O)N2Cc3ccccc3C2)c2cc(C#CCO)ccc2n1 : pIC50 was 6.00 to 8.00

Entry CC(C)N(C)C(=O)c1nc(N)nc2ccccc12 , pIC50 reported as < 5.00

pIC50 reading for CN(C)Cc1ccccc1-c1ccc2nc(N)nc(C(=O)N3Cc4ccccc4C3)c2c1 : 6.00 to 8.00

// recorded pIC50 for COCCNCc1ccccc1-c1ccc2nc(N)nc(C(=O)N3Cc4ccccc4C3)c2c1 : 6.00 to 8.00

For reference, reported pIC50 for NCc1ccccc1-c1ccc2nc(N)nc(C(=O)N3Cc4ccccc4C3)c2c1 stands at 5.00 to 6.00

Record Nc1nc(C(=O)N2Cc3ccccc3C2)c2cc(-c3ccccc3CN3CCNCC3)ccc2n1 , field pIC50: 6.00 to 8.00

For CCN(CC)C(=O)c1nc(N)nc2ccccc12 the compound record lists pIC50 as < 5.00

Entry Nc1nc(C(=O)N2Cc3ccccc3C2)c2cc(-c3ccccc3CNC3CCC(O)CC3)ccc2n1 (stereo not drawn) , pIC50 reported as 5.00 to 6.00

Value of pIC50 reported for the compound CCc1ccccc1-c1ccc2nc(N)nc(C(=O)N3Cc4ccccc4C3)c2c1 is 6.00 to 8.00
